These data points were gathered from PubChem BioAssay.

subject_of_test: Potassium voltage-gated channel subfamily KQT member 2 (Rattus norvegicus) (UniProt O88943)
Sequence (O88943 whole entry, looked up): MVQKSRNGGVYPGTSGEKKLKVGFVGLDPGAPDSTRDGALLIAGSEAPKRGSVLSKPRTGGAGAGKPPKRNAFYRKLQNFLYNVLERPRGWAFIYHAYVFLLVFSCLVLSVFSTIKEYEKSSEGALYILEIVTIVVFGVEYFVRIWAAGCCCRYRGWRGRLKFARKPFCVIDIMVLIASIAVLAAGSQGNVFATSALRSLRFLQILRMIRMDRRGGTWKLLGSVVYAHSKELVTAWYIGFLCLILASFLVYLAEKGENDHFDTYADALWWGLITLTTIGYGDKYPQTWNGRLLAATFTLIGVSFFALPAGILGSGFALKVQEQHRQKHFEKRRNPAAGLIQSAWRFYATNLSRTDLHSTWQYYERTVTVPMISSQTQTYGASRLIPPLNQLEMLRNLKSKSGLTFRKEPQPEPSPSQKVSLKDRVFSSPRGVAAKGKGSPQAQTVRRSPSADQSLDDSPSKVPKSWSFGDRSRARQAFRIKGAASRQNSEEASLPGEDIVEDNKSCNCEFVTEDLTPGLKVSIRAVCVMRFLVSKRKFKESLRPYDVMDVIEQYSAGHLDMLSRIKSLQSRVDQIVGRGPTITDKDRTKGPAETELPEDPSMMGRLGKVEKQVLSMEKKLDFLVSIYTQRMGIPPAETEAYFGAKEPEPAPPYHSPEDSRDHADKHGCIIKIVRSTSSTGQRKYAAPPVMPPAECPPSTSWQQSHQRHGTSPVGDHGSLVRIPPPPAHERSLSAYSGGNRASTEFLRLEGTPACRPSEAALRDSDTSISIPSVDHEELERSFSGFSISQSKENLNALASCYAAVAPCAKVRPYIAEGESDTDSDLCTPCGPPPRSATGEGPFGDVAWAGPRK
run_description: rat KCNQ2 channel potentiation, selectivity assay for KCNQ1 potentiator project, KCNQ2-CHO-K1 cells (AID 493009);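 further: assay conditions were tuned for KCNQ1 rather than KCNQ2 modulators; signal is max minus min fluorescence divided by baseline after thallium stimulus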
run_parameters: FluxOR thallium flux fluorescence, at 10 µM, scaled: buffer 0, activator control 100
Activity calls are given as the source filed them.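 How the source made its calls: active means mean duplicate potentiation above the buffer control mean plus 5 SD of buffer wells; inactive means the rest.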
Possible outcomes: active, inactive

| compound | assigned_class |
| --- | --- |
| Cc1ccc(C(=O)CC(=O)c2cc(Cl)ccc2O)cc1 | active |
| C=C[C@@]1(C)CC(=O)[C@]2(O)[C@@]3(C)[C@@H](O)CCC(C)(C)[C@@H]3[C@H](OC(C)=O)[C@H](O)[C@@]2(C)O1 | inactive |
| COc1ccc(OC)c(/C=C2\SC(=S)N(NS(=O)(=O)c3ccc(C)cc3)C2=O)c1 | active |
| CCOc1ccccc1OCC(=O)Nc1cc(S(=O)(=O)N2CCCCC2)ccc1N1CCN(CC)CC1 | inactive |
| CCOC(=O)C1=C(O)c2ccccc2C(=O)/C1=C\c1ccc(CC)cc1 | active |
| S=c1nc[nH]c2c1sc1nc(-c3ccccc3)c3c(c12)CCCC3 | active |
| Cc1nc(-c2nc(-c3c(C(=O)NNC(=O)c4ccc(Cl)cc4)noc3C)cs2)cs1 | active |
| Cc1ccc(S(=O)(=O)N2CCN(C(=O)c3ccc(Br)o3)CC2)c(C)c1 | inactive |
| CN(CCCNC(=O)CSc1cc(=O)n(C)c2ccc(Cl)cc12)Cc1ccccc1 | inactive |
| COC(=O)c1sc(-c2ccccc2)cc1NC(=O)C1CC1 | inactive |
| COc1cccc(OC)c1C(=O)Nc1cccc(-c2ccc3nncn3n2)c1 | inactive |
| CCNC(=S)N=Nc1c(O)n(Cc2ccc(Cl)cc2)c2ccccc12 | active |
| Cc1ccc2nc(C3CCN(S(=O)(=O)c4ccc5ccccc5c4)CC3)[nH]c2c1 | inactive |
| COc1ccccc1CNC(=O)c1oc2ccc(S(=O)(=O)N3CCOCC3)cc2c1C | inactive |
| Cc1noc(C)c1COc1ccc(CC(=O)NCc2ccccc2)cc1 | inactive |
| Cc1cccc(NC(=S)NC(=O)c2cc(-c3ccccc3)nc3ccccc23)c1 | inactive |
| CC(C)NC(=O)/C(=C/c1cn(-c2ccccc2)nc1-c1cccc([N+](=O)[O-])c1)NC(=O)c1ccccc1 | inactive |
| O=C(NCc1ccccc1)c1ccc2c(c1)C(=O)N(Cc1cccnc1)C2=O | inactive |
| CCN(CC)CCCNC(=O)c1c(O)c2cc(F)cc3c2n(c1=O)C(C)CC3 (stereo unspecified) | inactive |
| N#Cc1cn(CC(=O)NCC2CCCO2)c2ccccc12 (stereo unspecified) | inactive |
| Cc1ccc(OCC(=O)NC(=S)Nc2ccc(Br)cn2)cc1 | inactive |
